Measured normalized RNA/DNA level with ligand (log10) by item
B1: library; a variant is named by its letters at N, in order (parent)
chain: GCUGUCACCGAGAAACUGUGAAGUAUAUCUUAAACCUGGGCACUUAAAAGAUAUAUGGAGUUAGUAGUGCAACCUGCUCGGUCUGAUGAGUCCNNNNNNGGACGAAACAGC

Variants of: B1
Test: normalized RNA/DNA level with ligand (relative to sTRSVctl = 100) (log10 (% of sTRSVctl)); HEK293T; ligand: cyclic di-GMP (c-di-GMP-II aptamer); ligand concentration (+) RNA-Seq: 1 mM; higher = less ribozyme self-cleavage, higher mRNA level
Conditions: reporter: mCherry (pCS4076), ligand present: yes
Answer with a number only.

Example entries and their recorded answers appear below.
>>> value_observed("GCUGUCACCGAGAAACUGUGAAGUAUAUCUUAAACCUGGGCACUUAAAAGAUAUAUGGAGUUAGUAGUGCAACCUGCUCGGUCUGAUGAGUCCGCCGAAGGACGAAACAGC")
1.72
>>> value_observed("GCUGUCACCGAGAAACUGUGAAGUAUAUCUUAAACCUGGGCACUUAAAAGAUAUAUGGAGUUAGUAGUGCAACCUGCUCGGUCUGAUGAGUCCGUCUUGGGACGAAACAGC")
1.77
>>> value_observed("GCUGUCACCGAGAAACUGUGAAGUAUAUCUUAAACCUGGGCACUUAAAAGAUAUAUGGAGUUAGUAGUGCAACCUGCUCGGUCUGAUGAGUCCACGAAAGGACGAAACAGC")
1.52

Just so you know, measured normalized RNA/DNA level with ligand (log10) for GCUGUCACCGAGAAACUGUGAAGUAUAUCUUAAACCUGGGCACUUAAAAGAUAUAUGGAGUUAGUAGUGCAACCUGCUCGGUCUGAUGAGUCCAUCAUGGGACGAAACAGC came out at 1.78

Just so you know, measured normalized RNA/DNA level with ligand (log10) for GCUGUCACCGAGAAACUGUGAAGUAUAUCUUAAACCUGGGCACUUAAAAGAUAUAUGGAGUUAGUAGUGCAACCUGCUCGGUCUGAUGAGUCCCAUGAAGGACGAAACAGC came out at 1.43

Just so you know, measured normalized RNA/DNA level with ligand (log10) for GCUGUCACCGAGAAACUGUGAAGUAUAUCUUAAACCUGGGCACUUAAAAGAUAUAUGGAGUUAGUAGUGCAACCUGCUCGGUCUGAUGAGUCCCGCACCGGACGAAACAGC came out at 1.83

Just so you know, measured normalized RNA/DNA level with ligand (log10) for GCUGUCACCGAGAAACUGUGAAGUAUAUCUUAAACCUGGGCACUUAAAAGAUAUAUGGAGUUAGUAGUGCAACCUGCUCGGUCUGAUGAGUCCUACAUCGGACGAAACAGC came out at 1.81

Just so you know, measured normalized RNA/DNA level with ligand (log10) for GCUGUCACCGAGAAACUGUGAAGUAUAUCUUAAACCUGGGCACUUAAAAGAUAUAUGGAGUUAGUAGUGCAACCUGCUCGGUCUGAUGAGUCCCAGCACGGACGAAACAGC came out at 1.79

Just so you know, measured normalized RNA/DNA level with ligand (log10) for GCUGUCACCGAGAAACUGUGAAGUAUAUCUUAAACCUGGGCACUUAAAAGAUAUAUGGAGUUAGUAGUGCAACCUGCUCGGUCUGAUGAGUCCAAGGGUGGACGAAACAGC came out at 1.7

Just so you know, measured normalized RNA/DNA level with ligand (log10) for GCUGUCACCGAGAAACUGUGAAGUAUAUCUUAAACCUGGGCACUUAAAAGAUAUAUGGAGUUAGUAGUGCAACCUGCUCGGUCUGAUGAGUCCUUCGGCGGACGAAACAGC came out at 1.9

Just so you know, measured normalized RNA/DNA level with ligand (log10) for GCUGUCACCGAGAAACUGUGAAGUAUAUCUUAAACCUGGGCACUUAAAAGAUAUAUGGAGUUAGUAGUGCAACCUGCUCGGUCUGAUGAGUCCUAGGCCGGACGAAACAGC came out at 1.9

Just so you know, measured normalized RNA/DNA level with ligand (log10) for GCUGUCACCGAGAAACUGUGAAGUAUAUCUUAAACCUGGGCACUUAAAAGAUAUAUGGAGUUAGUAGUGCAACCUGCUCGGUCUGAUGAGUCCAUCUCAGGACGAAACAGC came out at 1.78

Just so you know, measured normalized RNA/DNA level with ligand (log10) for GCUGUCACCGAGAAACUGUGAAGUAUAUCUUAAACCUGGGCACUUAAAAGAUAUAUGGAGUUAGUAGUGCAACCUGCUCGGUCUGAUGAGUCCGCGGAGGGACGAAACAGC came out at 1.7

Just so you know, measured normalized RNA/DNA level with ligand (log10) for GCUGUCACCGAGAAACUGUGAAGUAUAUCUUAAACCUGGGCACUUAAAAGAUAUAUGGAGUUAGUAGUGCAACCUGCUCGGUCUGAUGAGUCCUUCAUGGGACGAAACAGC came out at 1.83

Just so you know, measured normalized RNA/DNA level with ligand (log10) for GCUGUCACCGAGAAACUGUGAAGUAUAUCUUAAACCUGGGCACUUAAAAGAUAUAUGGAGUUAGUAGUGCAACCUGCUCGGUCUGAUGAGUCCCUACACGGACGAAACAGC came out at 1.83

Just so you know, measured normalized RNA/DNA level with ligand (log10) for GCUGUCACCGAGAAACUGUGAAGUAUAUCUUAAACCUGGGCACUUAAAAGAUAUAUGGAGUUAGUAGUGCAACCUGCUCGGUCUGAUGAGUCCCGUUUAGGACGAAACAGC came out at 1.46

Just so you know, measured normalized RNA/DNA level with ligand (log10) for GCUGUCACCGAGAAACUGUGAAGUAUAUCUUAAACCUGGGCACUUAAAAGAUAUAUGGAGUUAGUAGUGCAACCUGCUCGGUCUGAUGAGUCCUGAUCGGGACGAAACAGC came out at 1.84

Just so you know, measured normalized RNA/DNA level with ligand (log10) for GCUGUCACCGAGAAACUGUGAAGUAUAUCUUAAACCUGGGCACUUAAAAGAUAUAUGGAGUUAGUAGUGCAACCUGCUCGGUCUGAUGAGUCCAGAACGGGACGAAACAGC came out at 1.67

Just so you know, measured normalized RNA/DNA level with ligand (log10) for GCUGUCACCGAGAAACUGUGAAGUAUAUCUUAAACCUGGGCACUUAAAAGAUAUAUGGAGUUAGUAGUGCAACCUGCUCGGUCUGAUGAGUCCUAUUUCGGACGAAACAGC came out at 1.87

Just so you know, measured normalized RNA/DNA level with ligand (log10) for GCUGUCACCGAGAAACUGUGAAGUAUAUCUUAAACCUGGGCACUUAAAAGAUAUAUGGAGUUAGUAGUGCAACCUGCUCGGUCUGAUGAGUCCGGCAGAGGACGAAACAGC came out at 1.76
